Assay: soluble fraction after stress (log2 fold change); higher = more stays soluble; pooled small domains, quantitative proteomics;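 further: 20 min heating vs room temperature control held 20 min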
Settings: stress: 75 degC

{"seq": "HMFSSVSVPAELSNQRFDKVVAELTPDLSRSKIKQLILLGKVLLNGEVTPPKQKVETGDEIEIFYTRQIE", "soluble fraction (log2)": -0.797}
{"seq": "HMEDLAERLDNLSTMYAKMDPVRAAQVLLESKNKSENIEVLKRLKPKSLGLILENMPPREAYDYVSELQ", "soluble fraction (log2)": 0.0743}
{"seq": "HMLDIQKKGENIAYIEGAGDVIPESLKQIGYHVVTIAPKDINAETLSRFDAVVVGIRAYNTVEDL", "soluble fraction (log2)": 0.0708}
{"seq": "HMDKEQVTFIFRDIDIALRSLDYPIKDIKNTLNIIKSEFSNSKSTELNEQKINFENILKEAISILENND", "soluble fraction (log2)": -0.855}
{"seq": "HMDYKSTLQELVQTVKKSVTYEVIDEEGPSHNKTFTSIVKIDGIVMGKGTAGSKKASEQEAARDALSKR", "soluble fraction (log2)": 0.42}
{"seq": "HMEPPAPAPDIPYPSRVTVRREVDGWPHYYGTWTRTPPVLGYEGIWLVGVSLDGKVQFVPVDDVTIA", "soluble fraction (log2)": -1.17}
{"seq": "HMSLEEQNGAKDRQVEAYELLLKAQRALDQEDTAGFQAAMKDLEPLSSQLDAQGQTLYHELLPFVS", "soluble fraction (log2)": -0.232}
{"seq": "HMNSTGVYQRPDGFWEYRFTLSINGKKLPRRKSTDLMGNKLKTKREAIKAREEAIIALRTEKTI", "soluble fraction (log2)": -1.42}
{"seq": "HMDDTRLLSEIGLSQRVLNALRARGIERVGQVLAMRPDQLLGIRNFGPRALQELRERLQENGYTEGPLFSG", "soluble fraction (log2)": 0.379}
{"seq": "HMKVNMIIVMKPGARETDIQEVSNVLKSAGLGVHISKGTERTIIGVIGDKRLLNGIPLDLMHGVDKLVPIM", "soluble fraction (log2)": -1.24}
{"seq": "HMSVPNVVGRDQVEASSLLESAGFKVSVKQSYSDSVEQGKVISQSPSGSTTVSPGSTVTITVSQ", "soluble fraction (log2)": 0.395}
{"seq": "HMNNFNVVVGKAIKNSFNTRENYITINAGKVLGIKTDMGVINDKGIVGIVEKTSKDFATIQSVLNIKS", "soluble fraction (log2)": 0.177}
{"seq": "HMDIKKHISATLKREMEKRGLNFMEFSTELGIPRTTLQGYLKGTSSPQADSLEELADKLGISPAELVSG", "soluble fraction (log2)": -0.0134}
{"seq": "HMSVHSAELKKLKAHLLGIIGRELETQPSTENREEMVRQILHQSYESLRLNLPMQLKEELFNEILAEVL", "soluble fraction (log2)": -0.459}
{"seq": "HMKKQLTISDGDWAGKVSSMLEDMGVINSASEFDKYLSDNGYSNVIKSGTYDVSPEDTFQELAEKIT", "soluble fraction (log2)": 0.952}
{"seq": "HMEELELTIDGEMVGRIDKQLGHHFDQFSRSQIQHWIEDGHVLVNGKQVKPKYKLLVGDHVQIIPEEPQK", "soluble fraction (log2)": 0.261}
{"seq": "HMETVSFNPDIAVIPDYRHVVILGETTKTIANKYDIPVDILKAANPGLGNNVTKGDRLRVPDKTKLQ", "soluble fraction (log2)": 0.00398}
{"seq": "HMELSVTDRTRQIRHILKEKGRVEFTSLFEELTKPYVIVTFLSVLEMSKNNELMITQDKTFGSITLEMKG", "soluble fraction (log2)": -0.446}
{"seq": "HMRSFGTVAQARGRWKAFYVGPDKRRHTPGVTFSNPIRAQGWLAQELTLIELGQWTPPAQRREKAEVAS", "soluble fraction (log2)": -2.26}
{"seq": "HMNEKTGTLTVYSSPGWAKVYIDGEYKGITPVMANLTYGDHYVKLTLDGYDSIGNHIDVNSPDQSYTGKF", "soluble fraction (log2)": -0.768}
{"seq": "HMSMSLQFLSRRIRLQREKRGLKQHDIAHALQISPQAVSKWERGENAPDIALLRPLAGLLGVSIDWLMGGD", "soluble fraction (log2)": -3.27}
{"seq": "HMKEKLGEFENVFLSVDELQKLKSKLGAETESYIERLSNYIASSGKKYKSHYATILSWTQKDTK", "soluble fraction (log2)": -0.88}
{"seq": "HMTVGEKIQYYRKKIGLSQEELGQKMLLSRQTISLWEMDKTLPTVDNLLRLKEIFSVSIDELLSENEPK", "soluble fraction (log2)": -1.31}
{"seq": "HMVVLPPTEDAPEWAQVFDRLGRPESADGYKLPVPEGADPAFAKLASAKMHELGLSAKQGAALAAWWNEQA", "soluble fraction (log2)": 0.0475}
{"seq": "HMLTANPEEVVNRLTSAGEVGVRPLLDVDDPINAISTLLAIREDVYKQFAQFDTVGKSPSEIAHEIDDFL", "soluble fraction (log2)": 0.11}
{"seq": "HMFDGNIKIVEDAFSVTIVARGTEVKISGDPENVYLASKTVEGLLTLIDKGEAITDQRVHYVIGLVREG", "soluble fraction (log2)": -2.45}
{"seq": "HMRKSNADALDGKTGIVKEEIKTGGYGYVGIDGDMWRSISESGEAIPAGTKVVVISHESIILTVKPA", "soluble fraction (log2)": -2.23}
{"seq": "HMDLSLQTFNELKTELTNNKITIDQFSEKINEFDITSDIFEISRELFLDDTLSLEDYLVVIENVLIN", "soluble fraction (log2)": -0.327}
{"seq": "HMIIMVNLYQIWDKEVQGLDSVGAKPEQIEARRQAIAAHFESKARQAGMSSKDIYATLDNFDTYSRQKTS", "soluble fraction (log2)": -2.26}
{"seq": "HMEDQFWQNRAEMALASARRAGRIVTYAEMADAADIPAPQRIHKLTLWLEATMRQDHASGQPLRAALV", "soluble fraction (log2)": 0.0883}
{"seq": "HMKQYVEPASETEKMVVELWEKVLLTEKIGMHDDFFELGGHSLKAMRLISLYHQEFNVRLSLKSLFEKLK", "soluble fraction (log2)": -0.241}
{"seq": "HMQTMTDDQVMQYVISQQEKGATQQDIVSKLLQKGVTVDQMRRIRKKYEAQQSQPGALDLTGSS", "soluble fraction (log2)": 0.654}
{"seq": "HMIDVGSKIRSLRKSKNISISTLAKNSDLSTGLISQIERNMVVPSIVAMWKISKALDINIGYFFE", "soluble fraction (log2)": -3.13}
